The measured values listed here are drawn from patent EP0674651B1.

target: human type 1 5α-reductase (Homo sapiens, UniProt P18405); test: 5α-reductase in vitro inhibitory activity, human type 1
Sequence (P18405 whole entry): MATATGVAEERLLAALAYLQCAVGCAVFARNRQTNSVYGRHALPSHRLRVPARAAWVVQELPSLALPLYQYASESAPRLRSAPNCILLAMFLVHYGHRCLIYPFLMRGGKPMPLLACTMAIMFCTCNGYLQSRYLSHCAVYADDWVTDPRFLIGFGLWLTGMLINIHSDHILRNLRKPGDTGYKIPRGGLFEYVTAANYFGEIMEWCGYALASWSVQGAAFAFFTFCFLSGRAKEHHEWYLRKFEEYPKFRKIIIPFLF
pIC50: −log10 of the molar value.
parameter: pIC50

INSERT INTO measurements (molecule, result) VALUES
  ('C[C@]12CC[C@H]3[C@@H](CNC4=CC(=O)CC[C@@]43C)[C@@H]1CC[C@@H]2C(=O)c1ccc(F)cc1F', '7.00 to 8.00'),
  ('C[C@]12CC[C@H]3[C@@H](CNC4=CC(=O)CC[C@@]43C)[C@@H]1CC[C@@H]2C(=O)NC1(c2ccc(C(F)(F)F)cc2)CCCC1', '> 8.00'),
  ('C[C@]12CC[C@H]3[C@@H](CNC4=CC(=O)CC[C@@]43C)[C@@H]1CC[C@@H]2C(=O)Nc1cc(C(F)(F)F)ccc1C(F)(F)F', '> 8.00'),
  ('C[C@]12CC[C@H]3[C@@H](CNC4=CC(=O)CC[C@@]43C)[C@@H]1CC[C@@H]2COC(=O)Oc1ccccc1', '> 8.00'),
  ('Cc1cccc(C(C)(C)C)c1NC(=O)[C@H]1CC[C@H]2[C@@H]3CNC4=CC(=O)CC[C@]4(C)[C@H]3CC[C@]12C', '< 7.00');

*Q* Provide the documented pIC50 with human type 1 5α-reductase (Homo sapiens, UniProt P18405) as the system for C[C@]12CC[C@H]3[C@@H](CNC4=CC(=O)CC[C@@]43C)[C@@H]1CC[C@@H]2C(=O)NC(Cc1ccccc1)c1ccccc1 (stereo partly drawn)
*A* 7.00 to 8.00

---

Entries and their IC50 values follow.
biological target: human type 1 5α-reductase (Homo sapiens, UniProt P18405); experiment: 5α-reductase in vitro inhibitory activity, human type 1

INSERT INTO measurements (molecule, result) VALUES
  ('CC(C)NC(=O)N(C(=O)[C@H]1CC[C@H]2[C@@H]3CNC4=CC(=O)CC[C@]4(C)[C@H]3CC[C@]12C)C(C)C', '> 100 nM'),
  ('COc1ccccc1Oc1ccc(C(F)(F)F)cc1NC(=O)[C@H]1CC[C@H]2[C@@H]3CNC4=CC(=O)CC[C@]4(C)[C@H]3CC[C@]12C', '10 to 100 nM'),
  ('C[C@]12CC[C@H]3[C@@H](CNC4=CC(=O)CC[C@@]43C)[C@@H]1CC[C@@H]2C(=O)C1CC2CCC1C2 (stereo partly shown)', '10 to 100 nM'),
  ('C[C@]12CC[C@H]3[C@@H](CNC4=CC(=O)CC[C@@]43C)[C@@H]1CC[C@@H]2COC(=O)C(c1ccccc1)c1ccccc1', '10 to 100 nM'),
  ('CC1=C2NC[C@H]3[C@@H]4CC[C@H](C(=O)Nc5cc(C(F)(F)F)ccc5C(F)(F)F)[C@@]4(C)CC[C@@H]3[C@@]2(C)CCC1=O', '< 10 nM');

*Q* Consider the molecule shown here: CCc1ccc(Cl)c(CC)c1NC(=O)[C@H]1CC[C@H]2[C@@H]3CNC4=CC(=O)CC[C@]4(C)[C@H]3CC[C@]12C What is its recorded IC50?
*A* 10 to 100 nM

*Q* Could you tell me which IC50 is on file for CC(C)(C)c1ccc(C2(NC(=O)[C@H]3CC[C@H]4[C@@H]5CNC6=CC(=O)CC[C@]6(C)[C@H]5CC[C@]34C)CCSCC2)cc1 ?
*A* < 10 nM

*Q* Would you mind telling me what IC50 value was observed for C[C@]12CC[C@H]3[C@@H](CNC4=CC(=O)CC[C@@]43C)[C@@H]1CC[C@@H]2C(=O)NC(c1ccc(F)cc1)c1cccs1 (stereo partly shown) ?
*A* 10 to 100 nM

*Q* So what's the measured IC50 for this one? C[C@]12CC[C@H]3[C@@H](CNC4=C(Cl)C(=O)CC[C@@]43C)[C@@H]1CC[C@@H]2C(=O)Nc1cc(C(F)(F)F)ccc1C(F)(F)F
*A* < 10 nM

*Q* Which IC50 is reported for this molecule? C[C@]12CC[C@H]3[C@@H](CNC4=CC(=O)CC[C@@]43C)[C@@H]1CC[C@@H]2C(=O)Nc1cccc(C#N)c1
*A* > 100 nM

*Q* Name the reported IC50 value associated with the molecule C[C@]12CC[C@H]3[C@@H](CNC4=CC(=O)CC[C@@]43C)[C@@H]1CC[C@@H]2C(=O)Nc1cccc(C(=O)O)c1
*A* > 100 nM

*Q* Given C[C@]12CC[C@H]3[C@@H](CNC4=CC(=O)CC[C@@]43C)[C@@H]1CC[C@@H]2C(=O)Nc1ccccc1-c1ccccc1 , state its recorded IC50.
*A* 10 to 100 nM

*Q* May I ask what IC50 has been recorded for CC(C)c1cc(C(C)C)c(C(=O)[C@H]2CC[C@H]3[C@@H]4CNC5=CC(=O)CC[C@]5(C)[C@H]4CC[C@]23C)c(C(C)C)c1 ?
*A* > 100 nM
